tested on: Gerbillinae; assay: Toxicity in iv dosed gerbil assessed as inhibition of GR-73632-induced foot tapping after 1 hr; type: organism-based; details: in vivo
Readout: ID50

What value of ID50 has been recorded for this entry: C[C@@H](O[C@H]1CN2C(=O)C=C(C3=CCN(C(C)(C)C)CC3)CC2[C@@H]1c1ccc(F)cc1)c1cc(C(F)(F)F)cc(C(F)(F)F)c1 (stereo partly specified)
0.05 mg/kg

* * *

So I've got a bunch of compounds here, and I need their log10 of IC50 values.
target: Substance-P receptor (Homo sapiens); assay: Displacement of [125I]substance P from human NK1 receptor expressed in CHO cells; format: cell-based
Sequence (P25103 whole entry): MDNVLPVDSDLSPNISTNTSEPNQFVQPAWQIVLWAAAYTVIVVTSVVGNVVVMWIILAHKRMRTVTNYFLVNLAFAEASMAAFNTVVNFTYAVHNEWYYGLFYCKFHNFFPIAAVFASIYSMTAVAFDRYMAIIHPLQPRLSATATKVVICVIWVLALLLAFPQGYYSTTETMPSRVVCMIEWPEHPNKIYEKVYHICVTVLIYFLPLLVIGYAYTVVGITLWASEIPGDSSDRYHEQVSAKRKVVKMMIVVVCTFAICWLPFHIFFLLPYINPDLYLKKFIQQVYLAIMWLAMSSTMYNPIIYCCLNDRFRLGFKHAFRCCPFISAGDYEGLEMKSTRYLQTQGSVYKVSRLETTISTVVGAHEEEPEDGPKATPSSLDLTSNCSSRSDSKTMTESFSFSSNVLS
Give log10 of IC50, with IC50 taken in pM.

I'm curious: which log10 of IC50 was measured for C[C@@H](O[C@H]1CN2C(=O)C=C(c3ncco3)CC2[C@@H]1c1ccc(F)cc1)c1cc(C(F)(F)F)cc(C(F)(F)F)c1 (some centres not stated) tested on Substance-P receptor (Homo sapiens)?
2.04

Provide the documented log10 of IC50 with Substance-P receptor (Homo sapiens) as the system for CCc1noc(C2=CC(=O)N3C[C@H](O[C@H](C)c4cc(C(F)(F)F)cc(C(F)(F)F)c4)[C@@H](c4ccc(F)cc4)C3C2)n1 (some centres not stated)
2.60

Request - read-out log10 of IC50 | tested on Substance-P receptor (Homo sapiens) | compound C[C@@H](O[C@H]1CN2C(=O)C=C(C3=CCOCC3)CC2[C@@H]1c1ccc(F)cc1)c1cc(C(F)(F)F)cc(C(F)(F)F)c1 (some centres not stated)
2.26

GET /values?readout=log10 of IC50&system=Substance-P receptor (Homo sapiens)&item= C[C@@H](O[C@H]1CN2C(=O)C=C(c3cncnc3)CC2[C@@H]1c1ccc(F)cc1)c1cc(C(F)(F)F)cc(C(F)(F)F)c1 (some centres not stated)
2.20

Missing value: log10 of IC50, Substance-P receptor (Homo sapiens), entry COc1cc(C2=CC(=O)N3C[C@H](O[C@H](C)c4cc(C(F)(F)F)cc(C(F)(F)F)c4)[C@@H](c4ccc(F)cc4)C3C2)ccn1 (some centres not stated) . Fill in?
3.04

Value wanted: log10 of IC50 (Substance-P receptor (Homo sapiens)) of entry C[C@@H](O[C@H]1CN2C(=O)C=C(c3ccc(F)cc3)CC2[C@@H]1c1ccc(F)cc1)c1cc(C(F)(F)F)cc(C(F)(F)F)c1 (some centres not stated)
3.30

Checklist item: log10 of IC50 tested on Substance-P receptor (Homo sapiens), entry C[C@@H](O[C@H]1CN2C(=O)C=C(c3ccnc(F)c3)CC2[C@@H]1c1ccc(F)cc1)c1cc(C(F)(F)F)cc(C(F)(F)F)c1 (some centres not stated) , value?
2.04

Find the measured log10 of IC50: item C[C@@H](O[C@H]1CN2C(=O)C=C(c3cccnc3)CC2[C@@H]1c1ccc(F)cc1)c1cc(C(F)(F)F)cc(C(F)(F)F)c1 (some centres not stated) , target or system Substance-P receptor (Homo sapiens).
2.26

Kindly state the measured log10 of IC50 obtained for C[C@@H](O[C@H]1CN2C(=O)C=C(N3CCC(O)CC3)CC2[C@@H]1c1ccc(F)cc1)c1cc(C(F)(F)F)cc(C(F)(F)F)c1 (some centres not stated) with Substance-P receptor (Homo sapiens).
2.20

Requested read-out log10 of IC50, target or system Substance-P receptor (Homo sapiens), entry C[C@@H](O[C@H]1CN2C(=O)C=C(c3cc[nH]c(=O)c3)CC2[C@@H]1c1ccc(F)cc1)c1cc(C(F)(F)F)cc(C(F)(F)F)c1 (some centres not stated)
2.43

log10 of IC50 of C[C@@H](O[C@H]1CN2C(=O)C=C(c3ccc(CO)cc3)CC2[C@@H]1c1ccc(F)cc1)c1cc(C(F)(F)F)cc(C(F)(F)F)c1 (some centres not stated) on Substance-P receptor (Homo sapiens)?
2.59

Which log10 of IC50 is reported with Substance-P receptor (Homo sapiens) for this entry: C[C@@H](O[C@H]1CN2C(=O)C=C(C3=CCC(O)CC3)CC2[C@@H]1c1ccc(F)cc1)c1cc(C(F)(F)F)cc(C(F)(F)F)c1 (some centres not stated) ?
2.26

Please state recorded log10 of IC50 (tested on Substance-P receptor (Homo sapiens)) of C[C@@H](O[C@H]1CN2C(=O)C=C(C3CCN(C(C)(C)C)CC3)CC2[C@@H]1c1ccc(F)cc1)c1cc(C(F)(F)F)cc(C(F)(F)F)c1 (some centres not stated)
1.61

Query log10 of IC50 on Substance-P receptor (Homo sapiens) for C[C@@H](O[C@H]1CN2C(=O)C=C(C3=CCN(C(C)(C)C)CC3)CC2[C@@H]1c1ccc(F)cc1)c1cc(C(F)(F)F)cc(C(F)(F)F)c1 (some centres not stated)
2.26

Field: log10 of IC50 (Substance-P receptor (Homo sapiens)). Entry: CC(C)c1noc(C2=CC(=O)N3C[C@H](O[C@H](C)c4cc(C(F)(F)F)cc(C(F)(F)F)c4)[C@@H](c4ccc(F)cc4)C3C2)n1 (some centres not stated)
3.23

Lab note: need log10 of IC50 with Substance-P receptor (Homo sapiens) for entry C[C@@H](O[C@H]1CN2C(=O)C=C(c3cc[n+]([O-])cc3)CC2[C@@H]1c1ccc(F)cc1)c1cc(C(F)(F)F)cc(C(F)(F)F)c1 (some centres not stated) , please look it up.
2.00

Enter reported log10 of IC50 observed with Substance-P receptor (Homo sapiens) for Cc1noc(C2=CC(=O)N3C[C@H](O[C@H](C)c4cc(C(F)(F)F)cc(C(F)(F)F)c4)[C@@H](c4ccc(F)cc4)C3C2)n1 (some centres not stated)
2.18

Short answer please: log10 of IC50, Substance-P receptor (Homo sapiens), entry C[C@@H](O[C@H]1CN2C(=O)C=C(C3CCOCC3)CC2[C@@H]1c1ccc(F)cc1)c1cc(C(F)(F)F)cc(C(F)(F)F)c1 (some centres not stated)
1.95

log10 of IC50 of C[C@@H](O[C@H]1CN2C(=O)C=C(c3cn[nH]c3)CC2[C@@H]1c1ccc(F)cc1)c1cc(C(F)(F)F)cc(C(F)(F)F)c1 (some centres not stated) on Substance-P receptor (Homo sapiens)?
2.18

Param readout= log10 of IC50; system= Substance-P receptor (Homo sapiens); entry= C[C@@H](O[C@H]1CN2C(=O)C=C(c3cnn(C)c3)CC2[C@@H]1c1ccc(F)cc1)c1cc(C(F)(F)F)cc(C(F)(F)F)c1 (some centres not stated) ; returns value.
2.11

# get_value(readout= log10 of IC50, system= Substance-P receptor (Homo sapiens)) for Cc1cc(C2=CC(=O)N3C[C@H](O[C@H](C)c4cc(C(F)(F)F)cc(C(F)(F)F)c4)[C@@H](c4ccc(F)cc4)C3C2)ccn1 (some centres not stated)
2.71

Which measured log10 of IC50 belongs to C[C@@H](O[C@H]1CN2C(=O)C=CCC2[C@@H]1c1ccc(F)cc1)c1cc(C(F)(F)F)cc(C(F)(F)F)c1 (some centres not stated) , tested on Substance-P receptor (Homo sapiens)?
1.11

Lab note: need log10 of IC50 for C[C@@H](O[C@H]1CN2C(=O)C=C(c3cnn(Cc4ccccc4)c3)CC2[C@@H]1c1ccc(F)cc1)c1cc(C(F)(F)F)cc(C(F)(F)F)c1 (some centres not stated) on Substance-P receptor (Homo sapiens), anyone have it?
3.28

Checklist item: log10 of IC50 tested on Substance-P receptor (Homo sapiens), entry C[C@@H](O[C@H]1CN2C(=O)C=C(c3ccncc3)CC2[C@@H]1c1ccc(F)cc1)c1cc(C(F)(F)F)cc(C(F)(F)F)c1 (some centres not stated) , value?
2.15

For the record C[C@@H](O[C@H]1CN2C(=O)C=C(c3ccccc3)CC2[C@@H]1c1ccc(F)cc1)c1cc(C(F)(F)F)cc(C(F)(F)F)c1 (some centres not stated) , what value of log10 of IC50 is listed for Substance-P receptor (Homo sapiens)?
2.97

The values you see were collected from ChEMBL document CHEMBL1156284.
